Molecular target: UniProt P09619
Assay: Inhibition of PDGFRβ kinase activity (HTRF KinEASE-TK)
Conditions: biochemical, HTRF KinEASE-TK
Here, each record is paired with measured IC50 data.

# query: IC50 of entry Cc1cc(F)c(C(=O)NCCCN2CCOCC2)cc1NC(=O)c1cnc(N)s1 [Example 164] > 1000 nM

# query: IC50 of entry Cc1ncc(C(=O)Nc2cc(C(=O)NCc3ccccc3F)c(F)cc2C)s1 [Example 51] > 1000 nM

# query: IC50 of entry Cc1cc(F)c(C(=O)Nc2ccn(C3CC(F)(F)C3)n2)cc1NC(=O)c1cnc(N)s1 [Example 139] 100 to 1000 nM

# query: IC50 of entry Cc1cc(F)c(C(=O)Nc2ccn(C3CC3)n2)cc1NC(=O)c1cnc(N)s1 [Example 159] > 1000 nM

# query: IC50 of entry Cc1cc(F)c(C(=O)Nc2ccn(CCO)n2)cc1NC(=O)c1cnc(N)s1 [Example 144] > 1000 nM

# query: IC50 of entry Cc1cc(F)c(C(=O)NC2CN(c3ncccn3)C2)cc1NC(=O)c1cnc(N)s1 [Example 125] > 1000 nM

# query: IC50 of entry Cc1ncc(C(=O)Nc2cc(C(=O)N[C@@H]3C[C@H]3c3ccccc3)c(F)cc2C)s1 [Example 31] > 1000 nM

# query: IC50 of entry Nc1ncc(C(=O)Nc2cc(C(=O)Nc3ccc(OC4CC4)cn3)c(F)cc2Cl)s1 [Example 209] 100 to 1000 nM

----------
Here, each record is paired with measured pIC50 data.
Molecular target: PDGFRβ (Homo sapiens (Human), UniProt P09619)
Sequence (P09619 33-1106): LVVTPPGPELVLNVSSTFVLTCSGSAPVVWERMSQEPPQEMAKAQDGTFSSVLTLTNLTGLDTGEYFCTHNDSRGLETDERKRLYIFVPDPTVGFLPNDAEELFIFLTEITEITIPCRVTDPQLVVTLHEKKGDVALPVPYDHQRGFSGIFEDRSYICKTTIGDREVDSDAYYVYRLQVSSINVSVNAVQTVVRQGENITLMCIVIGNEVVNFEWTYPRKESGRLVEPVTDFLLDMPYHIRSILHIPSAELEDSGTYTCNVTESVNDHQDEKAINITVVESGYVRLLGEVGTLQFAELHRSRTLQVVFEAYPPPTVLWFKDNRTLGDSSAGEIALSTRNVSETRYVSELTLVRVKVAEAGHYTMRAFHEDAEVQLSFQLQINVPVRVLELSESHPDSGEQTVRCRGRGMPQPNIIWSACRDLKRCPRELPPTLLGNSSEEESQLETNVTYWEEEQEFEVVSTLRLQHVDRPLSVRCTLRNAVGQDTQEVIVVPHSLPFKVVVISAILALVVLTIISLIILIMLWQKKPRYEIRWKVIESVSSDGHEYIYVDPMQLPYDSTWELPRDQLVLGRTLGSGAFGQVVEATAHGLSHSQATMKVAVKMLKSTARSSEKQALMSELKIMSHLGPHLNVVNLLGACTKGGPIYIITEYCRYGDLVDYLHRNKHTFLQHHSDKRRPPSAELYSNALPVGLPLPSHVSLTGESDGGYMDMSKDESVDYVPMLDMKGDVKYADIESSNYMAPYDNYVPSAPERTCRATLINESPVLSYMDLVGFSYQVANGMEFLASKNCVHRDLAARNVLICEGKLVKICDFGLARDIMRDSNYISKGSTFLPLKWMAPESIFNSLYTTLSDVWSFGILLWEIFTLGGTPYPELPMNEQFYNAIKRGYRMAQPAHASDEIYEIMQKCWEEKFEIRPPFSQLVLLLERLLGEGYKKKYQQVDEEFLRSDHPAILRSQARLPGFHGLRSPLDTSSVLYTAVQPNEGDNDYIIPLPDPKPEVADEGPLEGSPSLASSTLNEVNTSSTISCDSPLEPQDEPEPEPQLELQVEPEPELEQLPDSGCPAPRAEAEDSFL
Assay: Inhibition of PDGFRβ kinase activity (HTRF KinEASE-TK)
Conditions: biochemical, HTRF KinEASE-TK
pIC50: −log10 of the molar value.

Cc1cc(F)c(C(=O)Nc2ccc(OC3CC3)cc2)cc1NC(=O)c1cnc(N)s1
> 7.00
Cc1ncc(C(=O)Nc2cc(C(=O)Nc3ccn(C4CCC4)n3)c(F)cc2C)s1
< 6.00
Cc1cc(F)c(C(=O)Nc2ccc(OC(C)C)nn2)cc1NC(=O)c1cnc(N)s1
> 7.00

# query: pIC50 of entry Cc1ncc(C(=O)Nc2cc(C(=O)Nc3cnc(N4CC[C@H](F)C4)cn3)c(F)cc2C)s1 < 6.00

# query: pIC50 of entry Cc1ncc(C(=O)Nc2cc(C(=O)Nc3ccc(C(F)(F)F)nc3)c(F)cc2C)s1 < 6.00

# query: pIC50 of entry COC[C@@H]1CCCN1c1cnc(NC(=O)c2cc(NC(=O)c3cnc(C)s3)c(C)cc2F)cn1 < 6.00

# query: pIC50 of entry Cc1cc(F)c(C(=O)Nc2ccc(OC3CC3)cn2)cc1NC(=O)c1cnc(C2CC2)s1 < 6.00

# query: pIC50 of entry Cc1cc(F)c(C(=O)N[C@H]2CCOC2)cc1NC(=O)c1cnc(N)s1 < 6.00

----------
System: Sprague Dawley rat hepatocytes
Experiment: Bioactivation assessment in rat hepatocytes
Assay type: in vitro ADME
Conditions: 5 μM, 4 hours
Marks after values point to notes of the source that are not given here.
property name: Percent of total metabolism via bioactivation, Rat hepatocytes

These solved cases illustrate the format of a correct answer.
Cc1ncc(C(=O)Nc2cc(C(=O)Nc3ccc(OC(F)F)cn3)c(F)cc2C)s1
2%
Cc1ncc(C(=O)Nc2cc(C(=O)Nc3ccc(CC(F)(F)F)cn3)c(F)cc2Cl)s1
80%
Cc1ncc(C(=O)Nc2cc(C(=O)Nc3ccc(CC4CC4)cn3)c(F)cc2C)s1
<1%
Cc1ccc(-c2noc([C@H]3C[C@@H]3F)n2)cc1NC(=O)c1cnc2ccccn12 [labuxtinib, reference compound]
45%
Cc1ncc(C(=O)Nc2cc(C(=O)Nc3cnc(OCC(C)(F)F)cn3)c(F)cc2C)s1
<1%^a

What value of Percent of total metabolism via bioactivation, Rat hepatocytes on Sprague Dawley rat hepatocytes does Cc1ncc(C(=O)Nc2cc(C(=O)Nc3ccc(C4CC4)cn3)c(F)cc2C)s1 have? <0.1%

What value of Percent of total metabolism via bioactivation, Rat hepatocytes on Sprague Dawley rat hepatocytes does Cc1ncc(C(=O)Nc2cc(C(=O)Nc3ccc(CC(F)(F)F)cn3)c(F)cc2C)s1 have? 3-7%^b

What value of Percent of total metabolism via bioactivation, Rat hepatocytes on Sprague Dawley rat hepatocytes does Cc1ncc(C(=O)Nc2cc(C(=O)Nc3ccc(OC4CC4)cn3)c(F)cc2C)s1 have? 1-2%ª

What value of Percent of total metabolism via bioactivation, Rat hepatocytes on Sprague Dawley rat hepatocytes does Cc1ncc(C(=O)Nc2cc(C(=O)Nc3ccc(CC(F)(F)F)cn3)c(F)cc2F)s1 have? 88%

----------
Biological target: PDGFRβ (Homo sapiens (Human), UniProt P09619)
Assay: Inhibition of PDGFRβ kinase activity (HTRF KinEASE-TK)
Settings: biochemical, HTRF KinEASE-TK
pIC50: −log10 of the molar value.
Here, each record is paired with measured pIC50 data.

These solved cases illustrate the format of a correct answer.
Cc1cc(F)c(C(=O)Nc2nnc(C3CC3)s2)cc1NC(=O)c1cnc(N)s1 [Example 175]
> 7.00
Cc1ncc(C(=O)Nc2cc(C(=O)Nc3ccn(CC(C)C)n3)c(F)cc2C)s1 [Example 64]
< 6.00

# query: pIC50 of entry Cc1cc(F)c(C(=O)Nc2ccc(OC3CC3)cn2)cc1NC(=O)c1cnc(NCC(F)F)s1 [Example 235] 6.00 to 7.00

# query: pIC50 of entry COCc1ccc(NC(=O)c2cc(NC(=O)c3cnc(N)s3)c(Cl)cc2F)nc1 [Example 202] < 6.00

----------
Biological target: c-Kit (Homo sapiens (Human), UniProt P10721)
Sequence (P10721 26-976): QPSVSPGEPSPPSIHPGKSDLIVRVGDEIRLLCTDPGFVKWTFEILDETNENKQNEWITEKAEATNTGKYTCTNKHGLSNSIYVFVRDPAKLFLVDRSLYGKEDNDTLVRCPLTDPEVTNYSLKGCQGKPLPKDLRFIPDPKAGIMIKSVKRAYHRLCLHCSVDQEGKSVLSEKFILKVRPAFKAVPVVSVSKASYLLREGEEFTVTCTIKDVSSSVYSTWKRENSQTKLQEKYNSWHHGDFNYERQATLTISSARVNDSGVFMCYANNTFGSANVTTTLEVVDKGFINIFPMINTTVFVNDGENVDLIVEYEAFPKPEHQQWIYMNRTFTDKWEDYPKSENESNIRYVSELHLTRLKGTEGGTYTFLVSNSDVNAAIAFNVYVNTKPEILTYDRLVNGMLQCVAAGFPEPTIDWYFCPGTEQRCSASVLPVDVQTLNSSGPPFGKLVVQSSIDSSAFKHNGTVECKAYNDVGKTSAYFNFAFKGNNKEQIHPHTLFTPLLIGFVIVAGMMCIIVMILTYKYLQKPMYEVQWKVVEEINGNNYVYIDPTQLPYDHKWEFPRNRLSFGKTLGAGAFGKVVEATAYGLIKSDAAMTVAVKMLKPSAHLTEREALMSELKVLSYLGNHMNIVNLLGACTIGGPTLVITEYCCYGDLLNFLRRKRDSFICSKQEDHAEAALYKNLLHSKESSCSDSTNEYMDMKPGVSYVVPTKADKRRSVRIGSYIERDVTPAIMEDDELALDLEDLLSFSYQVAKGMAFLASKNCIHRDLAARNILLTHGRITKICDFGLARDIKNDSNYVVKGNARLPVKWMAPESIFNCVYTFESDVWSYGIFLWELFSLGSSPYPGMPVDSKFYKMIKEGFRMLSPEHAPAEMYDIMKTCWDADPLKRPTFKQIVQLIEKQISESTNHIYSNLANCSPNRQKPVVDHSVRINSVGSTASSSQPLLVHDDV
Assay: Inhibition of c-Kit kinase activity (HTRF KinEASE-TK)
Type: biochemical
Details: biochemical, HTRF KinEASE-TK
property name: IC50

Cc1cc(F)c(C(=O)Nc2ccn(CC(C)(C)O)n2)cc1NC(=O)c1cnc(N)s1 [Example 153]
< 100 nM
Cc1ncc(C(=O)Nc2cc(C(=O)Nc3cnc(OCC4CC4)cn3)c(F)cc2C)s1 [Example 88]
100 to 1000 nM
Cc1cc(F)c(C(=O)Nc2ccn(C(C)(C)C)n2)cc1NC(=O)c1cnc(N)s1 [Example 141]
< 100 nM
CCc1ccc(NC(=O)c2cc(NC(=O)c3cnc(N)s3)c(F)cc2F)nc1 [Example 214]
< 100 nM
Cc1ncc(C(=O)Nc2cc(C(=O)Nc3ccnc(C#N)c3)c(F)cc2C)s1 [Example 18]
< 100 nM

# query: IC50 of entry Cc1ncc(C(=O)Nc2cc(C(=O)N[C@@H]3C[C@@H]3c3ccccc3Cl)c(F)cc2C)s1 [Example 101] < 100 nM

# query: IC50 of entry Cc1ncc(C(=O)Nc2cc(C(=O)Nc3cnc(N4CCC[C@H]4C)cn3)c(F)cc2C)s1 [Example 84] < 100 nM

# query: IC50 of entry Cc1cc(F)c(C(=O)Nc2ccc(Cl)cc2)cc1NC(=O)c1cnc(N)s1 [Example 231] < 100 nM

# query: IC50 of entry Cc1cc(F)c(C(=O)Nc2ccccc2F)cc1NC(=O)c1cnc(N)s1 [Example 234] < 100 nM

----------
Here, each record is paired with measured IC50 data.
Biological target: CSF1R (Homo sapiens (Human), UniProt P07333)
Sequence (P07333 20-972): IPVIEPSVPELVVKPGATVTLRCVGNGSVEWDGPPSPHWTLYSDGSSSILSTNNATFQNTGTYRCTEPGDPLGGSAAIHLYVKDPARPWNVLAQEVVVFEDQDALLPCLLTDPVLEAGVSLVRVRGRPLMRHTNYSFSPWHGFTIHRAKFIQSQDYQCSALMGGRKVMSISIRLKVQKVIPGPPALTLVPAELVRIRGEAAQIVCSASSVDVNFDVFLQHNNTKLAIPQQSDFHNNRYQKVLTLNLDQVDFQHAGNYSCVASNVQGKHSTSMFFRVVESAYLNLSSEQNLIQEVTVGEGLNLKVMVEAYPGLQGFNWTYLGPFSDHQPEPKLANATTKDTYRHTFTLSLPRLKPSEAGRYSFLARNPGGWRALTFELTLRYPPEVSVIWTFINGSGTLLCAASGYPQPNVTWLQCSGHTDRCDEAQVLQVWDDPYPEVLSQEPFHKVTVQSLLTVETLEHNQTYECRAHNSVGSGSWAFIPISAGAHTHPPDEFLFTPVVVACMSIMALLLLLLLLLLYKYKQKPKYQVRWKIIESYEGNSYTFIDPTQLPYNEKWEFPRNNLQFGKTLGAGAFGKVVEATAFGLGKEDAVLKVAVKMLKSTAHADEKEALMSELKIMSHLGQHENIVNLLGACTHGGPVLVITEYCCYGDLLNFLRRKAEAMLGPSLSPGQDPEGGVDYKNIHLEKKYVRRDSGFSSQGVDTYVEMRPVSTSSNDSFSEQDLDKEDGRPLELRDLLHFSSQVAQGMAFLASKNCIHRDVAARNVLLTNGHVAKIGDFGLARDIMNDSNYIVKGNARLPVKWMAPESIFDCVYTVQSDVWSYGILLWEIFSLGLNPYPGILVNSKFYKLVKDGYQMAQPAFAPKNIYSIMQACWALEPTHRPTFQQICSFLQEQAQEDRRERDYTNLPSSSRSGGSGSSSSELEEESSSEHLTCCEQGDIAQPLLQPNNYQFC
Assay: Inhibition of CSF1R kinase activity (HTRF KinEASE-TK)
Conditions: biochemical

Cc1ncc(C(=O)Nc2cc(C(=O)Nc3ccc(CC4CC4)cn3)c(F)cc2C)s1
> 1 µM
Cc1cc(F)c(C(=O)Nc2ccc(OC(F)(F)F)cn2)cc1NC(=O)c1cnc(N)s1
0.1 to 1 µM

# query: IC50 of entry Cc1ncc(C(=O)Nc2cc(C(=O)Nc3ccc(C4CC4)cn3)c(F)cc2C)s1 > 1 µM

# query: IC50 of entry Cc1ncc(C(=O)Nc2cc(C(=O)Nc3cnc(OCC(C)(F)F)cn3)c(F)cc2C)s1 > 1 µM

# query: IC50 of entry Cc1cc(F)c(C(=O)Nc2ccc(CC(F)(F)F)cn2)cc1NC(=O)c1cnc(N)s1 0.1 to 1 µM

# query: IC50 of entry Cc1ncc(C(=O)Nc2cc(C(=O)Nc3ccc(CC(F)(F)F)cn3)c(F)cc2C)s1 > 1 µM

# query: IC50 of entry Cc1ncc(C(=O)Nc2cc(C(=O)Nc3ccc(OC4CC4)cn3)c(F)cc2C)s1 > 1 µM

# query: IC50 of entry Cc1cc(F)c(C(=O)Nc2ccc(OC(F)F)cn2)cc1NC(=O)c1cnc(N)s1 0.1 to 1 µM

# query: IC50 of entry Cc1cc(F)c(C(=O)Nc2ccc(OC3CC3)cn2)cc1NC(=O)c1cnc(NC(=O)N2CCC2)s1 < 0.1 µM

# query: IC50 of entry Cc1cc(F)c(C(=O)Nc2ccc(CC3CC3)cn2)cc1NC(=O)c1cnc(N)s1 0.1 to 1 µM

# query: IC50 of entry COCc1ccc(NC(=O)c2cc(NC(=O)c3cnc(N)s3)c(C)cc2F)nc1 > 1 µM
